Assay: NCI Yeast Anticancer Drug Screen. Data for the CLN2oe strain (AID 163);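 further: 0% = growth of vehicle-only control cultures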
Conditions: S. cerevisiae CLN2oe strain, at 11.0 µM
The panel holds about 79,000 compounds, 15% with a hit somewhere; the sample as a whole holds those more often. Calls of active or inactive are those of the source. No stated cut-off is given here; in the data, active means growth inhibition above about 70%; inactive means the rest.
Possible outcomes: active, inactive

compound=Fc1ccc(NC(=S)SCc2ccc(Cl)c(Cl)c2)cc1F assignedclass=inactive
compound=COc1ccccc1/C=C1\Sc2scc(-c3cccc([N+](=O)[O-])c3)[n+]2C1=O assignedclass=active
compound=COC(=O)c1ccc([N+](=O)[O-])c(O)c1 assignedclass=inactive
compound="CC(C(=O)N1C(=O)N(C(=O)[C@H](C)C(O)c2ccccc2)[C@H](c2ccccc2)[C@H]1c1ccccc1)[C@@H](O)c1ccccc1 (stereo not given in full)" assignedclass=inactive
compound=Cc1nc(-[n+]2nc(-c3ccncc3)nn2-c2ccccc2)sc1C assignedclass=inactive
compound=O=[N+]([O-])/C=C/c1ccc2ccccc2c1 assignedclass=active
compound="CCCCCCCCCCCCCCCCCCN(C)CC(COP(=O)([O-])OCC[N+](C)(C)C)OC (stereo not given)" assignedclass=active
compound=BrCc1cccc2ccc3cccc(CBr)c3c12 assignedclass=inactive
compound=O=C1C(Nc2ccccc2)=C(Oc2ccccc2)C(=O)c2ccccc21 assignedclass=inactive
compound=CN(C)c1ccc(Sc2ccc3nc(N)nc(N)c3c2)cc1 assignedclass=inactive
compound=CSC1=NNC(SC)=NN1 assignedclass=inactive
compound=C/C(=N\NC(=S)SCc1ccccc1)c1ccccn1 assignedclass=inactive
compound=O=C1c2ccccc2C(=O)c2cc(CBr)ccc21 assignedclass=inactive
compound="COc1cc(C2C3=C(COC3=O)Oc3cc4c(cc32)OCO4)ccc1O (stereo not given)" assignedclass=inactive
compound=O=C1Nc2ccc(Cl)c(I)c2C1=O assignedclass=inactive
compound=Cc1ccc(Nc2nc3c(=O)n(C)c(=O)n(C)c3nc2Nc2ccc(C)cc2)cc1 assignedclass=inactive
compound=NC(=S)N/N=C\c1nccc2ccccc12 assignedclass=inactive
compound=CCS(=O)(=O)c1ccc(/C=C/C=N/NC(=S)NCC(C)C)cc1 assignedclass=inactive
compound=COc1ccc2nc3c([N+](=O)[O-])ccc(NCCN(C)C)c3c(NCCN(C)C)c2c1 assignedclass=inactive
compound=CCC(=O)c1cccc2ccccc12 assignedclass=inactive

====

Assay: NCI Yeast Anticancer Drug Screen. Data for the mec2-1 strain (AID 157)
Details: S. cerevisiae mec2-1 strain, at 3.7 µM, active compounds read high
This is part of a sample that, as a whole, favours compounds with a hit. Of some 79,000 tested, about 15% had one in any assay.
Reported growth inhibition values for the following compounds.
measure: growth inhibition (%)

compound="Clc1ccccc1C1OC1c1ccccc1Cl (stereo not drawn)" measure="growth inhibition" valueobserved=-86
compound=CC(=O)Oc1cc(-c2cc(OC(C)=O)c(OC(C)=O)c3ccccc23)c2ccccc2c1OC(C)=O measure="growth inhibition" valueobserved=9
compound=O=C1CSc2cc([N+](=O)[O-])ccc2N1 measure="growth inhibition" valueobserved=-5
compound="Cc1ccc(C2C(Cl)C(=O)N2n2cnc3ccccc3c2=O)cc1 (stereo not drawn)" measure="growth inhibition" valueobserved=-12
compound=CCNc1nnc(CSc2nc(-c3ccccc3)c(-c3ccccc3)[nH]2)s1 measure="growth inhibition" valueobserved=0
compound=CCCc1cc(C(=O)OCC)cc(CCC)c1O measure="growth inhibition" valueobserved=-5
compound=COc1ccc2ccc3ccccc3c2c1C=O measure="growth inhibition" valueobserved=-6
compound=O=C(Nc1ccccc1)OCCc1ccc(Cl)c(Cl)c1 measure="growth inhibition" valueobserved=-4
compound=COc1cc2ccc(/C=C\[N+](=O)[O-])cc2cc1OC measure="growth inhibition" valueobserved=-34
compound=CCN(CC)C(=S)N/N=C(/C)c1cccc(/C(C)=N\NC(=S)N(CC)CC)n1 measure="growth inhibition" valueobserved=-3
compound=CCCCN(CCCC)CCSc1ccc(Cl)cc1 measure="growth inhibition" valueobserved=-5
compound=Cc1cc(N=Nc2ccc(S(=O)(=O)[O-])cc2)cc(C(=O)[O-])c1[O-].NC1CCCCC1N.[Na+].[Pt+4] measure="growth inhibition" valueobserved=77
compound="COc1cc(CC2CC(c3ccc4c(c3)OCO4)OC2=O)cc(OC)c1OC (stereo not drawn)" measure="growth inhibition" valueobserved=-2
